# Assayed System: NaV1.1 (Homo sapiens (Human), UniProt P35498)
# Assay Info: Sodium Influx Assay (Flux), NaV1.1;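 also: channels co-expressed with human β1 subunit and held open by modulators, cells exposed to compounds for one hour at room temperature, IC50 from percent inhibition of influx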
# Format: cell-based
# Study Conditions: Trex HEK293 cells, ANG2 dye, inactivated state
Where a name gives a salt, the structure may show the parent alone.
// IC50 lookup, one value per entry
Answer with a number only, understood to be in µM.

| Molecule | Meas Value |
| --- | --- |
| CC[C@H](Nc1cc(F)c(S(=O)(=O)Nc2ccncn2)c(F)c1)c1cc(F)ccc1Cl [Example 276] | 3.6 |
| Cc1c(NCc2c(F)cccc2CN2CCC2)cc(F)c(S(=O)(=O)Nc2cscn2)c1F [Example 304, 2,2,2-trifluoroacetate] | 5.3 |

Proceed to the following item.
Request: Requested field: IC50. Item: O=S(=O)(Nc1cscn1)c1c(F)cc(NCc2c(F)cccc2CNC2CCC2)cc1F [Example 177, formate]
Result: 5.4

Cited source for all entries: patent US11174268B2
